Where do the numbers come from? From patent US11332472B2.

experimental system: USP7 (Homo sapiens, UniProt Q93009, C315A)
Construct: 0.25 nM His-His-USP7 (aa208-560, [C315A]) was incubated with compound; His-His (N)
Sequence (Q93009 208-560 C315A): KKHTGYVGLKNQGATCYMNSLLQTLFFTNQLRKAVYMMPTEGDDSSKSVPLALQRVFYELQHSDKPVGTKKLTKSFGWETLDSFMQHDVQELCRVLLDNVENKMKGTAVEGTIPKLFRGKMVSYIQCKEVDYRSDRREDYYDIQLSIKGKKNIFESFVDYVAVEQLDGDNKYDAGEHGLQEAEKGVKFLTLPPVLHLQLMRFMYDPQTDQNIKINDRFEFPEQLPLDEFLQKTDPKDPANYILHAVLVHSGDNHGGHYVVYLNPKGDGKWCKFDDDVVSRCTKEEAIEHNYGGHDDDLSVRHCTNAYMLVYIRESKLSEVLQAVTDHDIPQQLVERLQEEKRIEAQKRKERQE
protocol notes: Inhibition of USP7 by Fluorescence Intensity (FLINT) readings, Ubiquitin-Rhodamine-110 substrate
Type: biochemical
measurement context: 0.25 nM His-His-USP7 (aa208-560, [C315A]); compound 60 minutes at 30° C.; 500 nM Ubiquitin-Rhodamine substrate; 11-point curves
Items are presented alongside their recorded IC50.
Field: numeric (µM). Do not append units.

// worked examples, IC50 included
>>> assay_result("O=C(Cc1cccc(O)c1)Nc1ccc2ncn(CC3(O)CCN(C(=O)[C@@H]4CCCC[C@H]4c4ccccc4)CC3)c(=O)c2n1 (relative stereo)")
0.0217
>>> assay_result("COc1ccc(-n2ccc3c(=O)n(CC4(O)CCN(C(=O)[C@@H]5CCCO[C@H]5c5ccccc5)CC4)cnc32)cc1 (single isomer, unassigned) [Example 44]")
2.75
>>> assay_result("CN1C(=O)CC[C@@H](C(=O)N2CCC(O)(Cn3cnc4c(ccn4C)c3=O)CC2)[C@@H]1c1ccccc1 (single isomer, unassigned)")
0.399
>>> assay_result("O=C([C@@H]1CC(F)(F)CC[C@H]1c1ccccc1)N1CCC(O)(Cn2cnc3c(ccn3-c3ccccc3)c2=O)CC1 (single isomer, unassigned) [Example 32]")
0.0353

Task: Any idea what IC50 was measured for O=C(C1CC(F)CCC1c1ccccc1)N1CCC(O)(Cn2cnc3c(ccn3-c3ccccc3)c2=O)CC1 (stereo not drawn) ?
Result: 0.0463

Task: Any idea what IC50 was measured for Nc1ccc2ncn(CC3(O)CCN(C(=O)[C@@H]4CCCC[C@H]4c4ccccc4)CC3)c(=O)c2n1 (relative stereo) ?
Result: 0.226

* * *

Items are presented alongside their recorded IC50.
experimental system: USP7 (Homo sapiens, UniProt Q93009, C315A)
Construct: 0.25 nM His-His-USP7 (aa208-560, [C315A]) was incubated with compound; His-His (N)
protocol notes: Inhibition of USP7 by Fluorescence Intensity (FLINT) readings, Ubiquitin-Rhodamine-110 substrate
Type: biochemical
measurement context: 0.25 nM His-His-USP7 (aa208-560, [C315A]); compound 60 minutes at 30° C.; 500 nM Ubiquitin-Rhodamine substrate; 11-point curves

>>> assay_result("O=C([C@@H]1OCCO[C@@H]1c1ccccc1)N1CCC(O)(Cn2cnc3c(ccn3-c3ccccc3)c2=O)CC1 (single isomer, unassigned) [Example 6]")
"28000 nM"
>>> assay_result("COc1ccc(-n2ccc3c(=O)n(CC4(O)CCN(C(=O)[C@@H]5CCCC[C@H]5c5ccc(F)cc5)CC4)cnc32)cc1 (single isomer, unassigned) [Example 40]")
"883 nM"
>>> assay_result("O=C([C@@H]1CCCO[C@H]1c1ccccc1)N1CCC(O)(Cn2cnc3c(ccn3-c3ccccc3)c2=O)CC1 (single isomer, unassigned) [Example 26]")
"67 nM"
>>> assay_result("COc1ccc(CNc2ccc3ncn(CC4(O)CCN(C(=O)[C@@H]5CCCC[C@H]5c5ccccc5)CC4)c(=O)c3n2)cc1 (relative stereo) [Example 94]")
"351 nM"
>>> assay_result("COc1ccc(C(=O)Nc2ccc3ncn(CC4(O)CCN(C(=O)[C@@H]5CCCC[C@H]5c5ccccc5)CC4)c(=O)c3n2)cc1 (relative stereo) [Example 107]")
"102 nM"
>>> assay_result("O=C([C@@H]1CCCC(F)(F)[C@H]1c1ccccc1)N1CCC(O)(Cn2cnc3c(ccn3-c3ccccc3)c2=O)CC1 (relative stereo) [Example 52]")
"71.8 nM"
>>> assay_result("O=C(Nc1ccc2ncn(CC3(O)CCN(C(=O)[C@@H]4CCCC[C@H]4c4ccccc4)CC3)c(=O)c2n1)C1CCCC1O (relative stereo) [Example 103]")
"125 nM"
>>> assay_result("O=C([C@@H]1CCCC[C@H]1n1cccc1)N1CCC(O)(Cn2cnc3c(ccn3-c3ccccc3)c2=O)CC1 (racemic) [Example 12]")
"71.1 nM"
>>> assay_result("O=C([C@@H]1CCCC[C@H]1c1ccccc1)N1CCC(O)(Cn2cnc3sccc3c2=O)CC1 (relative stereo) [Example 91]")
"137 nM"
>>> assay_result("O=C([C@@H]1CCCC[C@H]1c1ccccc1)N1CCC(O)(Cn2cnc3c(ccn3Cc3ccsc3)c2=O)CC1 (relative stereo) [Example 110]")
"450 nM"

Task: Any idea what IC50 was measured for COc1ccc(-n2ccc3c(=O)n(CC4(O)CCN(C(=O)[C@@H]5CCC(F)(F)C[C@H]5c5ccccc5)CC4)cnc32)cc1 (single isomer, unassigned) [Example 33] ?
Result: 4670 nM

Task: Any idea what IC50 was measured for COc1ccc(-n2ccc3c(=O)n(CC4(O)CCN(C(=O)[C@@H]5CCC(F)(F)C[C@H]5c5ccoc5)CC4)cnc32)cc1 (relative stereo) [Example 74] ?
Result: 2900 nM
